Where do these numbers come from? They come from BindingDB's records for doi:10.1021/ml400413c.

- TARGET OF ASSAY: Peroxisome proliferator-activated receptor delta (Homo sapiens, UniProt Q03181)
- Sequence (Q03181 whole entry, the tested form may be a part): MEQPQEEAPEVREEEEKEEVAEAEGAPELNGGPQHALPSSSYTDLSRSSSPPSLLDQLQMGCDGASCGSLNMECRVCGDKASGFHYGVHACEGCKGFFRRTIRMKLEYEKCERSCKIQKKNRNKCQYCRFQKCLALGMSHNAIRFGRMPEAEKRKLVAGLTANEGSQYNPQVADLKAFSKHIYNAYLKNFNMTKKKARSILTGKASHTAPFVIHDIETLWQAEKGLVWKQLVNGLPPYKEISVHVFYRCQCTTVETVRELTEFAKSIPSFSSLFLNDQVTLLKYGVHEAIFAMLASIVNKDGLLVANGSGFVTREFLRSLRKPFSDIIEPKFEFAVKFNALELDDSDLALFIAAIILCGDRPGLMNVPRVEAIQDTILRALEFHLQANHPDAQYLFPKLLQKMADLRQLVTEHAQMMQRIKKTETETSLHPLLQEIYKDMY
- TEST METHOD NOTES: Agonist activity at human PPARdelta ligand binding domain expressed in monkey COS7 cells cotransfected with Gal4 by luciferase reporter gene assay
pEC50: −log10 of the molar value.
METRIC: pEC50

MOLECULE: COC(c1ccc(Br)cc1)C1CC1c1cc(C)c(OC(C)(C)C(=O)O)c(C)c1 (stereo unspecified)
TARGET OF ASSAY: Peroxisome proliferator-activated receptor delta (Homo sapiens, UniProt Q03181)
TEST RESULT: 7.27

---

- TARGET OF ASSAY: Peroxisome proliferator-activated receptor gamma (Homo sapiens)
- Sequence (P37231 whole entry, the tested form may be a part): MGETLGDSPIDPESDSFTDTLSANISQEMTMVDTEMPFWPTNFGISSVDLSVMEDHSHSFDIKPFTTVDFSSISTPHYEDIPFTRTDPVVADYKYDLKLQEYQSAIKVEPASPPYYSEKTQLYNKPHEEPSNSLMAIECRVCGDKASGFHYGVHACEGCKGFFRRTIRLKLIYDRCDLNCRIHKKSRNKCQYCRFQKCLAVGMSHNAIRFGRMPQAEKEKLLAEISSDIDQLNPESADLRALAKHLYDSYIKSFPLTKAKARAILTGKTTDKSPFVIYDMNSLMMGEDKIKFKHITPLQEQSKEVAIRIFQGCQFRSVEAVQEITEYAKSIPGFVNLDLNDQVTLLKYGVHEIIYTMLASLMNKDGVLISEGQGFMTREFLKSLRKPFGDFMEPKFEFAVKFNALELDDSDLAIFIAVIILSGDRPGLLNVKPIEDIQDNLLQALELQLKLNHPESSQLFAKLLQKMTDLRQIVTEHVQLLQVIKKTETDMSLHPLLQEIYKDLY
- TEST METHOD NOTES: Agonist activity at human PPARgamma ligand binding domain expressed in monkey COS7 cells cotransfected with Gal4 by luciferase reporter gene assay
Below, each entry is listed with its recorded EC50.

COMPOUND: CCOC(c1ccc(OC(F)(F)F)cc1)C1CC1c1cc(C)c(OC(C)(C)C(=O)O)c(C)c1 (configuration not stated)
EC50: 39 nM

COMPOUND: COC(c1ccc(Br)cc1)C1CC1c1cc(C)c(OC(C)(C)C(=O)O)c(C)c1 (configuration not stated)
EC50: 19 nM
